assay: MDCK cell permeability; details: dog, MDCK, Papp (A-B), MDCK cells; BSA 0% for controls, 0.5% for 13
Reported metric: Papp A→B

In the examples that follow, each entry is paired with its recorded Papp A→B.
• COCCc1ccc(OCC(O)CNC(C)C)cc1 (stereo not drawn) = 21.6 ×10⁻⁶ cm/s
• C[C@H]1O[C@@H](O[C@H]2[C@@H](O)C[C@H](O[C@H]3[C@@H](O)C[C@H](O[C@H]4CC[C@@]5(C)[C@H](CC[C@@H]6[C@@H]5C[C@@H](O)[C@]5(C)[C@@H](C7=CC(=O)OC7)CC[C@]65O)C4)O[C@@H]3C)O[C@@H]2C)C[C@H](O)[C@@H]1O = 1.01 ×10⁻⁶ cm/s

Entry "C[C@]12CC[C@H]3[C@@H](CC=C4C[C@@H](O)CC[C@@]43C)[C@@H]1CC[C@@H]2c1cn(Cc2ccccc2)nn1" : reported Papp A→B = ?
0.63 ×10⁻⁶ cm/s
